Answer each item with its documented IC50.
# EXPERIMENT: Displacement of [3H]-QNB from Wistar rat brain membrane mAChR incubated for 30 mins by radioligand competitive binding assay
# Format: cell membranes
One number for each entry, in µM.

Known results for molecules:
- ITEM_SMILES: "CN1CCN(CC(=O)Nc2ccccc2/N=N/c2ccc(N(C)C)cc2)CC1"
  PROPERTY_NAME: "IC50"
  READOUT_NUMBER: 33
- ITEM_SMILES: "CN1CCN(CC(=O)Nc2ccccc2/N=N\\c2cccnc2)CC1.Cl.Cl"
  PROPERTY_NAME: "IC50"
  READOUT_NUMBER: 42

Kindly give each listed record's IC50.
1. CN1CCN(CC(=O)Nc2ccccc2/N=N\c2ccc(N(C)C)cc2)CC1
2. CN1CCN(CC(=O)Nc2ccccc2/N=N/c2ccccc2)CC1.Cl.Cl
3. CN1CCN(CC(=O)Nc2ccccc2/N=N\c2ccccc2)CC1.Cl.Cl

Reply:
[32, 9.9, 9.2]

Ask: Which IC50 reading was recorded for the molecule CN1CCN(CC(=O)Nc2ccccc2/N=N/c2cccnc2)CC1.Cl.Cl ?
Reply: 38
